- tested.target: human TLR8 (Homo sapiens (Human))
- Sequence (Q9NR97 27-1041): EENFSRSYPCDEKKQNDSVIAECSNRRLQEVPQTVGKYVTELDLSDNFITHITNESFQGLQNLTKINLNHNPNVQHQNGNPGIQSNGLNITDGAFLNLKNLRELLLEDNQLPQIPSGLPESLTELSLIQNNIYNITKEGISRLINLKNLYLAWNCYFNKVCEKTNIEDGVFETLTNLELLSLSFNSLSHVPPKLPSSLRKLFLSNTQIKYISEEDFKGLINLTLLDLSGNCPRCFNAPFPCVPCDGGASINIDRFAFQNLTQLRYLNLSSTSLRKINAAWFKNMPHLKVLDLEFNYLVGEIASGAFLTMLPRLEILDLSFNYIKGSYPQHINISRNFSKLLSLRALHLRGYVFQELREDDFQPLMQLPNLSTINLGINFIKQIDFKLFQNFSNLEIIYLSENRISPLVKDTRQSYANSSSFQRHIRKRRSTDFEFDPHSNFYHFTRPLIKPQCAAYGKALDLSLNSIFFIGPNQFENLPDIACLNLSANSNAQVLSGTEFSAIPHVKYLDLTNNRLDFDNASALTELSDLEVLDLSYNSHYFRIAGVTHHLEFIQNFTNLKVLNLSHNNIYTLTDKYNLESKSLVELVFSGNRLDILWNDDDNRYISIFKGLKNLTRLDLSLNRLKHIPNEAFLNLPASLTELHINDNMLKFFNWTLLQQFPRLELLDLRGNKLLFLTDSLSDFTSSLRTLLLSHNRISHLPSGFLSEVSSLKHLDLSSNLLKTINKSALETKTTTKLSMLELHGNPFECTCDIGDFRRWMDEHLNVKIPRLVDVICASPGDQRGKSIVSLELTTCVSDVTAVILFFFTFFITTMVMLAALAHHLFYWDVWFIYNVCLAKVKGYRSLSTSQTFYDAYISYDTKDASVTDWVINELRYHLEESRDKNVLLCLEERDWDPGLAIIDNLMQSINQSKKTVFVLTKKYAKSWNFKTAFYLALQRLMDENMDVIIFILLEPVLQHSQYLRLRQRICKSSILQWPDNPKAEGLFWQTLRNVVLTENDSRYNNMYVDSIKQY
- test: TLR8 inhibition reporter assay (HEK-Blue SEAP);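 note: SEAP driven by IFN-β minimal promoter carrying NF-κB and AP-1 sites, compounds dosed 0.05 nM to 50 µM for 22 h, inhibition scaled between agonist-plus-DMSO and reference-inhibitor wells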
- assay.conditions: read-out: TLR8 IC50; HEK-Blue cells overexpressing human TLR8, SEAP reporter, R848 15.9 μM
pIC50: −log10 of the molar value.
measurement.name: pIC50

>  <compound>
COc1cc(-c2[nH]c3ccc(OC4CCC(N(C)C)CC4)nc3c2C(C)C)cn2ncnc12 (stereo not drawn) [Example 610]

>  <measurement.name>
pIC50

>  <obs.value>
7.85

$$$$
>  <compound>
Cc1cc2[nH]c(-c3cn4ncnc4c(C)c3C)c(C(C)C)c2nc1C1CCC(NC2COC2)CC1 (stereo not drawn) [Example 502]

>  <measurement.name>
pIC50

>  <obs.value>
8.29

$$$$
>  <compound>
Cc1c(-c2[nH]c3ccc(N4[C@@H]5CC[C@H]4CN(CCS(C)(=O)=O)C5)nc3c2C(C)C)cn2ncnc2c1C [Example 748]

>  <measurement.name>
pIC50

>  <obs.value>
7.82

$$$$
>  <compound>
COc1cc(-c2[nH]c3ccc(C4CC(NCC5(C)COC5)C4)nc3c2C(C)C)cn2ncnc12 (stereo not drawn) [Example 616]

>  <measurement.name>
pIC50

>  <obs.value>
8.82

$$$$
>  <compound>
COc1cc(-c2[nH]c3ccc(OCC4CN(C(C)C)C4)nc3c2C(C)C)cn2ncnc12 [Example 592]

>  <measurement.name>
pIC50

>  <obs.value>
8.13

$$$$
>  <compound>
Cc1c(-c2[nH]c3ccc(CCC4CNC4)nc3c2C(C)C)cn2ncnc2c1C [Example 692]

>  <measurement.name>
pIC50

>  <obs.value>
7.24

$$$$
>  <compound>
Cc1c(-c2[nH]c3ccc(C4CCC(N(C)CC(N)=O)CC4)nc3c2C(C)C)cn2ncnc2c1C (stereo not drawn) [Example 406]

>  <measurement.name>
pIC50

>  <obs.value>
8.52

$$$$
>  <compound>
Cc1c(-c2[nH]c3ccc(N4CCN(CCC(N)=O)[C@@H](C)C4)nc3c2C(C)C)cn2ncnc2c1C [Example 791]

>  <measurement.name>
pIC50

>  <obs.value>
8.96

$$$$
>  <compound>
Cc1c(-c2[nH]c3ccc(N4[C@@H](C)CN(C(=O)CN(C)C)C[C@@H]4C)nc3c2C(C)C)cn2ncnc2c1C [Example 752]

>  <measurement.name>
pIC50

>  <obs.value>
9.28

$$$$
>  <compound>
Cc1c(-c2[nH]c3ccc(N4CCN(C(C)C)[C@@H](C)C4)nc3c2C(C)C)cn2ncnc2c1C [Example 792]

>  <measurement.name>
pIC50

>  <obs.value>
9.00

$$$$
>  <compound>
Cc1c(-c2[nH]c3ccc(C4CCC(N(C)C5COC5)CC4)nc3c2C(C)C)cn2ncnc2c1C (single isomer, unassigned) [Example 430]

>  <measurement.name>
pIC50

>  <obs.value>
7.85

$$$$
>  <compound>
COc1cc(-c2[nH]c3ccc(OCC4CCN(C5CCOCC5)CC4)nc3c2C(C)C)cn2ncnc12 [Example 591]

>  <measurement.name>
pIC50

>  <obs.value>
8.11

$$$$
>  <compound>
CNC(=O)CN(C)C1CCC(c2ccc3[nH]c(-c4cn5ncnc5c(C)c4C)c(C(C)C)c3n2)CC1 (stereo not drawn) [Example 420]

>  <measurement.name>
pIC50

>  <obs.value>
8.55

$$$$
>  <compound>
Cc1cc(-c2[nH]c3ccc(C4CCNCC4)nc3c2C(C)C)cc(C)n1 [Example 512]

>  <measurement.name>
pIC50

>  <obs.value>
8.25

$$$$
>  <compound>
COc1cc(-c2[nH]c3ccc(C4CC(NC(=O)CN(C)C)C4)nc3c2C(C)C)cn2ncnc12 (stereo not drawn) [Example 619]

>  <measurement.name>
pIC50

>  <obs.value>
8.52

$$$$
